Provenance of the data: paper PMC10304225

- RUN DESCRIPTION: Solubility measurement in various solvents (excess compound, 72 h shaking)
- Format: physicochemical
- DETAILS: methanol
- Protocol: The solubility of 2-amino-4-aryl-6-substituted pyridine-3,5-dicarbonitrile derivatives (S1–S4) in various solvents (methanol, ethanol, phosphate buffer, and water) was determined by adding an excess amount of each compound to 10 mL of each solvent in a sealed conical flask. […] One mL samples of the clear supernatant was withdrawn, diluted with the suitable solvent, and finally analyzed spectrophotometrically at pre-determined wavelengths (Table S1).
Entries annotated with measured solubility in methanol
PROPERTY: solubility in methanol (mg/mL)

COMPOUND STRUCTURE STRING: CCNc1nc(N)c(C#N)c(-c2ccccc2)c1C#N
TEST RESULT: 21.76
--
COMPOUND STRUCTURE STRING: N#Cc1c(N)nc(Nc2ccccc2)c(C#N)c1-c1ccccc1
TEST RESULT: 16.57
--
COMPOUND STRUCTURE STRING: N#Cc1c(N)nc(N)c(C#N)c1-c1ccccc1
TEST RESULT: 35.36
--
COMPOUND STRUCTURE STRING: Cc1ccc(Nc2nc(N)c(C#N)c(-c3ccccc3)c2C#N)cc1
TEST RESULT: 25.71
